These data points were gathered from ChEMBL document CHEMBL4373740.

Assay: Mean residence time in Sprague-Dawley rat at 5.0 mg/kg, ig measured for 15 min to 72 hrs by LC-MS/MS analysis
Assay type: ADME, organism-based
Settings: in vivo, po
measuredParameter: MRT (h)

a. O=C(Nc1cc(Oc2ccc(Nc3nccc4[nH]cc(-c5ccc(F)cc5)c(=O)c34)cc2F)ccn1)C1CC1
b. Cn1cc(-c2ccc(F)cc2)c(=O)c2c(Nc3ccc(Oc4ccnc(NC(=O)C5CC5)c4)c(F)c3)nccc21
query: Identify the entry with the larger MRT. Options: a and b Returns: label corresponding to the selected item.
result: b

---

Experiment: Oral bioavailability in Sprague-Dawley rat at 10 mg/kg, ig measured for 15 min to 72 hrs by LC-MS/MS analysis
Format: ADME, organism-based
Conditions: in vivo
measuredParameter: bioavailability (%)
Field: numeric (%). Do not append units.

query: In one line, give reported bioavailability of the entry "Nc1nccc(Oc2ccc(Nc3nccc4[nH]cc(-c5ccc(F)cc5)c(=O)c34)cc2F)c1Cl" .
result: 12

---

Target: UniProt:Q06418
Sequence (Q06418 whole entry, the tested form may be a part): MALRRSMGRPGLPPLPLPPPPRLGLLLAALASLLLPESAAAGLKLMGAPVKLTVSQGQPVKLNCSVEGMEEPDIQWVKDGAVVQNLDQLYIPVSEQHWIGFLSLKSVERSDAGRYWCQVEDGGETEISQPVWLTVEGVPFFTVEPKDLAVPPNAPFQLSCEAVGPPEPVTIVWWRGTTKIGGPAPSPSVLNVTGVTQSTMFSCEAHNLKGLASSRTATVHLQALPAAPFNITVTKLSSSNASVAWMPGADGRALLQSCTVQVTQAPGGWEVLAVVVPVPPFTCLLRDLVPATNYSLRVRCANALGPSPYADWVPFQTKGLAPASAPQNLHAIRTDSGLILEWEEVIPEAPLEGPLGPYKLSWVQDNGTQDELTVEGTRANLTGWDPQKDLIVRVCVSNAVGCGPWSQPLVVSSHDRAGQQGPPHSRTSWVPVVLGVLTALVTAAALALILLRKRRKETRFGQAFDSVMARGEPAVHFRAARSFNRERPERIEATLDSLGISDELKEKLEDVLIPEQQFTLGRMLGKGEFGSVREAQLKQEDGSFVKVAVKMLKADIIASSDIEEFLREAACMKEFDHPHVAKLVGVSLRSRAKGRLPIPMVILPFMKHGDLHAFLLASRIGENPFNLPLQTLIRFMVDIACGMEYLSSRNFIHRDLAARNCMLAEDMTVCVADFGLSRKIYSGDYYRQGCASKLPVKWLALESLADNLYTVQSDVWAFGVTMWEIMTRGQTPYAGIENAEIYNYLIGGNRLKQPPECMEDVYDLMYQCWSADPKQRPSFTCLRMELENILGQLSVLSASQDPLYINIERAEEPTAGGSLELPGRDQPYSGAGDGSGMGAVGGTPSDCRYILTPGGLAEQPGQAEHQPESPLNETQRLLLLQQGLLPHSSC
Assay: Inhibition of recombinant human GST-tagged RSE catalytic domain (451 to 890 residues) expressed in baculovirus expression system using biotin as substrate preincubated for 5 mins followed by substrate addition and measured after 30 to 60 mins in presence of ATP by HTRF assay
measuredParameter: IC50 (nM)
Field: numeric (nM). Do not append units.

query: In one line, give reported IC50 of the entry "Cn1cc(-c2ccc(F)cc2)c(=O)c2c(Nc3ccc(Oc4ccnc(NC(=O)C5CC5)c4)c(F)c3)nccc21" .
result: 41.1

---

Assay: AUC (0 to infinity) in Sprague-Dawley rat at 1.0 mg/kg, iv measured for 5 min to 72 hrs by LC-MS/MS analysis
Assay type: ADME, organism-based
Set-up: dose 1 mg/kg, time infinity, route intravenous
Settings: in vivo
measuredParameter: AUC(0-inf) (ng·h/mL)

P. Cn1cc(-c2ccc(F)cc2)c(=O)c2c(Nc3ccc(Oc4ccnc(NC(=O)C5CC5)c4)c(F)c3)nccc21
Q. O=C(Nc1cc(Oc2ccc(Nc3nccc4[nH]cc(-c5ccc(F)cc5)c(=O)c34)cc2F)ccn1)C1CC1
query: Identify the entry with the larger AUC(0-inf). Options: P and Q Returns: label corresponding to the selected item.
result: P
(P: 80600 ng·h/mL, Q: 13500 ng·h/mL)

---

Assay: Cmax in Sprague-Dawley rat at 1.0 mg/kg, iv measured for 5 min to 72 hrs by LC-MS/MS analysis
Format: ADME, organism-based
Design: dose 1 mg/kg, route intravenous
Details: in vivo
measuredParameter: Cmax (ng/mL)

1. Cn1cc(-c2ccc(F)cc2)c(=O)c2c(Nc3ccc(Oc4ccnc(NC(=O)C5CC5)c4)c(F)c3)nccc21
2. O=C(Nc1cc(Oc2ccc(Nc3nccc4[nH]cc(-c5ccc(F)cc5)c(=O)c34)cc2F)ccn1)C1CC1
query: Identify the entry with the larger Cmax. Options: 1 and 2 Returns: label corresponding to the selected item.
result: 1
(1: 6500 ng/mL, 2: 1900 ng/mL)

---

Molecular target: Macrophage-stimulating protein receptor (Homo sapiens, UniProt Q04912)
Sequence (Q04912 25-304 limits assumed): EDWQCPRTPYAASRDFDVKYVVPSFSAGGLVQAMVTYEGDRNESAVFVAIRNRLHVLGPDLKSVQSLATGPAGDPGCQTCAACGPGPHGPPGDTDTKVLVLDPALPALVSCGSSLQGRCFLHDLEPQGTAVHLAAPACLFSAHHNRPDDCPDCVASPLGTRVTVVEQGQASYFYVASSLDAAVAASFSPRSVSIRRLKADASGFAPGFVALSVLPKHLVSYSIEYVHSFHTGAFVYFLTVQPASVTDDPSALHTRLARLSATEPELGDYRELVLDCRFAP
Sequence (Q04912 310-1400 limits assumed): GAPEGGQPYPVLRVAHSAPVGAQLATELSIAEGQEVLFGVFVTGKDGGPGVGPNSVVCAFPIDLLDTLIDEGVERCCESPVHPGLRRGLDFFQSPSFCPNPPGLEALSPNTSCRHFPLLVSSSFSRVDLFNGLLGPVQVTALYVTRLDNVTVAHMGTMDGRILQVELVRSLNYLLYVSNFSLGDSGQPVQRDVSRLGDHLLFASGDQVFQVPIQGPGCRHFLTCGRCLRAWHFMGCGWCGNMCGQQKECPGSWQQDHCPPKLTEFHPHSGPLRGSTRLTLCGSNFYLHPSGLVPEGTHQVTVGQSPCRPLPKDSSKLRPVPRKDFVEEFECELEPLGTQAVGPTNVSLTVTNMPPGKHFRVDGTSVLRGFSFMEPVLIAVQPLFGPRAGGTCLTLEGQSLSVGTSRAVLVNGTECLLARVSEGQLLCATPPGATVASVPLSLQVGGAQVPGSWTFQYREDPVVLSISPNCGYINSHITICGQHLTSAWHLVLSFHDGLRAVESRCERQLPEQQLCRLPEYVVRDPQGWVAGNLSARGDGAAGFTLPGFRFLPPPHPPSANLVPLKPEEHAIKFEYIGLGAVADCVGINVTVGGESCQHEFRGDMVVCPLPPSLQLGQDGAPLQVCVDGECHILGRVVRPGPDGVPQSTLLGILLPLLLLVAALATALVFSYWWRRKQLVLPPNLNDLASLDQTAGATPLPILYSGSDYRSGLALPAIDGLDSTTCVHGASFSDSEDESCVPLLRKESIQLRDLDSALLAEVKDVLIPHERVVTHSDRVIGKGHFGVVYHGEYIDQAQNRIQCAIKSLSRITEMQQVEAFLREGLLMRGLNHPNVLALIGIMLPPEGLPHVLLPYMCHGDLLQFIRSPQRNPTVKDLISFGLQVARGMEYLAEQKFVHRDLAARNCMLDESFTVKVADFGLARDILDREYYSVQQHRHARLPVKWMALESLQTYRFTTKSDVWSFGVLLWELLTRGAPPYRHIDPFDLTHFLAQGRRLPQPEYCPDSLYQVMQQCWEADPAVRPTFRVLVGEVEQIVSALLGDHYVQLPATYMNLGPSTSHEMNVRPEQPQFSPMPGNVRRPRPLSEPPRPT
Test: Inhibition of recombinant human GST-tagged RON expressed in baculovirus system using biotin as substrate preincubated for 5 mins followed by substrate addition and measured after 30 to 60 mins in presence of ATP by HTRF assay
measuredParameter: pIC50
The value called pIC50 is obtained by taking minus log10 of the concentration in mol/L.

query: In one line, give reported pIC50 of the entry "Cn1cc(-c2ccc(F)cc2)c(=O)c2c(Nc3ccc(Oc4ccnc(NC(=O)C5CC5)c4)c(F)c3)nccc21" .
result: 6.46
